Listing of recorded Inhibition of IP stimulation by 10nM Agonist: % Inhibition of Max by entry.
assayed_system: human gpr-54 receptor (human, UniProt Q969F8 1-398)
Sequence (Q969F8 whole entry): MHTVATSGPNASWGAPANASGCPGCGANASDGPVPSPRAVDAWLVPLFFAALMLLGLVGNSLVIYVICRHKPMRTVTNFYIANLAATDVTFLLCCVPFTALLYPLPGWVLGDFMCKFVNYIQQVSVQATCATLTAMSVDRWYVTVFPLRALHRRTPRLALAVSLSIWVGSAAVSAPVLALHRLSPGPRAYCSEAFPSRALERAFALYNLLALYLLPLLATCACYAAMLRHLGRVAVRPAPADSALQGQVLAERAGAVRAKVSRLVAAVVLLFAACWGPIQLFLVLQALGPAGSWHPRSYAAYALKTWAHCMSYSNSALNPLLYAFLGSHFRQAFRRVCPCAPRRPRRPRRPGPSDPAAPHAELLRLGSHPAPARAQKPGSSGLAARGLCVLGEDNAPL
assay_explanation: cell-based or functional assay
Non-standard residues stand in square brackets, D forms with d. No end group written: not given here.
endpoint_label: Inhibition of IP stimulation by 10nM Agonist: % Inhibition of Max (%)

binder: Ac-[dW]NWNGFG[dW]RF-NH2 (SMILES CC(=O)N[C@H](Cc1c[nH]c2ccccc12)C(=O)N[C@@H](CC(N)=O)C(=O)N[C@@H](Cc1c[nH]c2ccccc12)C(=O)N[C@@H](CC(N)=O)C(=O)NCC(=O)N[C@@H](Cc1ccccc1)C(=O)NCC(=O)N[C@H](Cc1c[nH]c2ccccc12)C(=O)N[C@@H](CCCNC(=N)N)C(=O)N[C@@H](Cc1ccccc1)C(N)=O) [243]
value: 55
//
binder: YNWNGFGLRF-NH2 (kisspeptin-10 analogue) [208]
value: 55
//
binder: Ac-FGLRF-NH2 (kisspeptin-10 analogue; also called Peptide 188; acFGLRF) [188]
value: 74
//
binder: Ac-[dF]WLRW-NH2 (SMILES CC(=O)N[C@H](Cc1ccccc1)C(=O)N[C@@H](Cc1c[nH]c2ccccc12)C(=O)N[C@@H](CC(C)C)C(=O)N[C@@H](CCCNC(=N)N)C(=O)N[C@@H](Cc1c[nH]c2ccccc12)C(N)=O, kisspeptin-10 analogue; also called ac[F-(D)]WLRW) [203]
value: 71
//
binder: Ac-[dY][dN]WNSFG[dW]RF-NH2 [241]
value: 24
